system: HCT-116 colon; assay: NCI tumour cell line growth inhibition, 48 h
readout_label: TGI (µM)
Reply with just the number (in µM).

Assign TGI to the following record: CCc1ccc2c(c1)N(CC(C)CN(C)C)c1ccccc1S2 (stereo unspecified) 11

Assign TGI to the following record: O=C(NCCNCCO)c1cccc2ccc(-c3ccccc3)nc12 11.8

Assign TGI to the following record: O=C1c2c(Br)sc(Br)c2[C@@H](NC(=O)C(F)(F)F)C1Br (stereo partly specified) 2.76

---

tested on: MOLT-4 leukemia; assay: NCI tumour cell line growth inhibition, 48 h
readout_label: TGI (µM)
Reply with just the number (in µM).

Assign TGI to the following record: N#CC1(C#N)C(c2ccccc2)C=CC12OCCCO2 (centres undefined) 98.1

Assign TGI to the following record: CC(C)/C(Cl)=N/OC(=O)Nc1ccc(Cl)c(Cl)c1 6.2

Assign TGI to the following record: CC1=NN(c2ccccc2)C(=O)/C1=C\c1ccc([N+](=O)[O-])cc1 48.4

Assign TGI to the following record: CC1C=CC(OC(=O)C(C)(O)CCC(O)(C(=O)OC2CC(O)C(C(C)C)CC2(C)O)C(C)C)(C(C)C)CC1 (centres undefined) 0.861
